- targetOfAssay: CDK1 (Homo sapiens, UniProt P06493)
- Construct: endogenous in cells; host or cells: OVCAR-8
- Sequence (P06493 whole entry): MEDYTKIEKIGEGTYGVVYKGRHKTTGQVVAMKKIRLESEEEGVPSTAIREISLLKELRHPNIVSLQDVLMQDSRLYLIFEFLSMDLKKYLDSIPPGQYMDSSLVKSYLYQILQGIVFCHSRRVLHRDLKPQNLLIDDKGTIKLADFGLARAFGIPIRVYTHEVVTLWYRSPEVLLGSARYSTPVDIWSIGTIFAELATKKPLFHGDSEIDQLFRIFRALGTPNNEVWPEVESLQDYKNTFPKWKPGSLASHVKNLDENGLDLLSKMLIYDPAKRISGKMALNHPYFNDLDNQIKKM
- procedureDetails: CDK1 degradation by immunoblotting in OVCAR-8 cells
- Assay type: cell-based
- conditionDescription: 24 h
observable: DC50

compound	targetOfAssay	observable	measuredResult
Cc1cc(S(=O)(=O)NCCOC2CC3(C2)CN(Cc2ccc4c(c2)n(C)c(=O)n4C2CCC(=O)NC2=O)C3)ccc1Nc1ncc2ccc(=O)n(C3CCCC3)c2n1 (centres unmarked) [I-111]	CDK1 (Homo sapiens, UniProt P06493)	DC50	1000 to 5000 nM
CC(C)NC(=O)O[C@H]1CC[C@@H](c2cc(NC(=O)c3ccnn3CCN3CCN(CCOCCCc4ccc5c(c4)n(C)c(=O)n5C4CCC(=O)NC4=O)CC3)[nH]n2)C1 (some centres unmarked) [I-151]	CDK1 (Homo sapiens, UniProt P06493)	DC50	> 5000 nM
C[C@@]1(O)CCC[C@H]1n1c(=O)c(C(F)F)cc2cnc(NC3CCN(S(=O)(=O)CCCCCCCCCCNc4cccc5c4C(=O)N(C4CCC(=O)NC4=O)C5=O)CC3)nc21 (some centres unmarked) [I-15]	CDK1 (Homo sapiens, UniProt P06493)	DC50	100 to 1000 nM
Cc1cc(S(=O)(=O)NCCOCCOCCCc2ccc3c(c2)n(C)c(=O)n3C2CCC(=O)NC2=O)ccc1Nc1ncc2cc(C(F)F)c(=O)n([C@@H]3CCC[C@@]3(C)O)c2n1 (some centres unmarked) [I-5]	CDK1 (Homo sapiens, UniProt P06493)	DC50	> 5000 nM
Cc1cc(S(=O)(=O)NCCO[C@H]2CC[C@H](CN3CCC(c4ccc5c(c4)n(C)c(=O)n5C4CCC(=O)NC4=O)CC3)CC2)ccc1Nc1ncc2cc(Cl)c(=O)n(C3CCCC3)c2n1 (some centres unmarked) [I-108]	CDK1 (Homo sapiens, UniProt P06493)	DC50	100 to 1000 nM
